# Method notes: Cytotoxicity against MDCK cells incubated for 48 hrs by CPE method
# Type: cell-based, Canis lupus familiaris
# Test parameters: dog, read-out: TC50
The entries below are paired with their reported CC50 at 48 h.
Just the number please, in µM, no unit attached.

Q. // lookup CC50 at 48 h for CCC(=O)Nc1cc(NC(=O)c2ccccc2)ccc1OC
A. 387

Q. For CCC(=O)Nc1cc(C(=O)Nc2ccccc2)ccc1Cl , what is its reported CC50 at 48 h?
A. 530

Q. Dear colleague, I am looking for the recorded CC50 at 48 h of the following compound: COc1ccc(C(=O)Nc2ccccc2)cc1NC(=O)C(C)Cl (centres undefined)
A. 200

Q. May I ask what CC50 at 48 h has been recorded for NC(=O)c1ncn([C@@H]2O[C@H](CO)[C@@H](O)[C@H]2O)n1 ?
A. 4770

Q. Query (compound): COc1ccc(C(=O)Nc2ccccc2)cc1NC(=O)c1ccccc1 ; field requested: CC50 at 48 h
A. 192

Q. Look at this compound and give its reported CC50 at 48 h. CCC(=O)Nc1cc(C(=O)Nc2ccc([N+](=O)[O-])cc2)ccc1OC
A. 307

----------
# Method notes: Selectivity index, ratio of TC50 for MDCK cells to IC50 for Influenza A virus (A/Guangdong-Luohu/219/2006(H1N1))
# Format: toxicity, cell-based
# Test parameters: dog, read-out: Selectivity Index
Short version: selectivity ratio at least 4 is met, less is not met.

Consider the following illustrative entries.
| Smiles string | Category |
| --- | --- |
| CCC(=O)Nc1cc(C(=O)Nc2nccs2)ccc1OC | met |
| CCC(=O)Nc1cc(C(=O)NC2CCCCC2)ccc1OC | met |

Q. Quick check: does CCC(=O)Oc1cc(C(=O)Nc2ccccc2)ccc1OC have selectivity ratio greater than or equal to 4?
A. not met

Q. Determine whether measured selectivity ratio meets or exceeds 4 for CCOC(=O)C1=C[C@@H](OC(CC)CC)[C@H](NC(C)=O)[C@@H](N)C1
A. met

Q. Confirm if selectivity ratio reported for the compound CCC(=O)Nc1cc(C(=O)NC2CCC2)ccc1OC is 4 or above.
A. met

Q. Hi, just wondering whether CCC(=O)Nc1cc(C(=O)Nc2ccccc2)ccc1Cl shows selectivity ratio of 4 or higher.
A. not met

Q. Determine whether measured selectivity ratio meets or exceeds 4 for COc1ccc(C(=O)Nc2ccccc2)cc1NC(=O)c1ccccc1
A. met

Q. Entry COc1ccc(C(=O)N(C)c2ccccc2)cc1NC(=O)C(C)C : is its selectivity ratio no less than 4?
A. met

Q. hey, is selectivity ratio for this one >= 4? CCC(=O)Nc1cc(C(=O)Nc2ccc([N+](=O)[O-])cc2)ccc1OC
A. met

----------
# Tested on: Influenza B virus
# Method notes: Antiviral activity against Influenza B virus (strain B/Jifang/13/97) infected in MDCK cells assessed as inhibition of virus-induced cytopathic effect
# Assay type: functional, organism-based
Endpoint label: IC50 (µM)
Numeric only. Scale: µM

Worked cases, answers included:
| Molecule | Test target | Measured result |
| --- | --- | --- |
| NC(=O)c1ncn([C@@H]2O[C@H](CO)[C@@H](O)[C@H]2O)n1 [RIBAVIRIN] | Influenza B virus | 45.5 |
| CCC(=O)Nc1cc(C(=O)Nc2nccs2)ccc1OC | Influenza B virus | 126 |
| COc1ccc(C(=O)Nc2ccccc2)cc1NC(=O)c1ccccc1 | Influenza B virus | 21.4 |

We now examine a further molecule.
Q. Find the recorded IC50 belonging to CCC(=O)Nc1cc(C(=O)Nc2ccc([N+](=O)[O-])cc2)ccc1OC and report it.
A. 64.8

----------
# Method notes: Selectivity index, ratio of TC50 for MDCK cells to IC50 for Influenza A virus (A/Tianjin-Jinnan/15/2009(H1N1))
# Type: toxicity, cell-based
# Test parameters: dog, read-out: Selectivity Index
Endpoint label: selectivity ratio
Lab note: record the figure alone, no unit after it.

See these solved cases before continuing.
| Smiles string | selectivity ratio |
| --- | --- |
| NC(=O)c1ncn([C@@H]2O[C@H](CO)[C@@H](O)[C@H]2O)n1 | 135 |
| COc1ccc(C(=O)Nc2ccccc2)cc1NC(=O)c1ccccc1 | 20.9 |

Q. Can you share its selectivity ratio? I mean this compound: CCC(=O)Nc1cc(C(=O)Nc2nccs2)ccc1OC
A. 6.9

----------
# Method notes: Cytotoxicity against MDCK cells incubated for 48 hrs by CPE method
# Assay type: cell-based, Canis lupus familiaris
# Test parameters: dog, read-out: TC50
Some compounds, each annotated with its measured CC50 at 48 h.

| Compound | CC50 at 48 h |
| --- | --- |
| CCC(=O)Nc1cc(S(=O)(=O)Nc2ccccc2)ccc1OC | > 599 µM |

Q. Would you mind telling me what CC50 at 48 h value was observed for COc1c(NC(=O)C(C)F)cccc1C(=O)Nc1ccccc1 (stereo not drawn) ?
A. > 632 µM

Q. Which CC50 at 48 h is reported for this compound? CCC(=O)Nc1cc(C(=O)Nc2ccc(C)cc2)ccc1OC
A. 162 µM

Q. # query: CC50 at 48 h of entry COc1ccc(C(=O)Nc2ccccc2)cc1NC(=O)C(C)F (stereo not drawn)
A. > 632 µM

Q. May I ask what CC50 at 48 h has been recorded for CCC(=O)Oc1cc(C(=O)Nc2ccccc2)ccc1OC ?
A. 518 µM

Q. Look up CC50 at 48 h: CCC(=O)Nc1cc(C(=O)Nc2ccc(Br)cc2)ccc1OC
A. 90.4 µM

Q. Record request: CC50 at 48 h value, item COc1cc(NC(=O)C(C)F)cc(C(=O)Nc2ccccc2)c1 (stereo not drawn)
A. 491 µM

Q. Quick one: CC50 at 48 h of CCC(=O)Nc1cc(C(=O)Nc2ccccn2)ccc1OC ?
A. > 669 µM

Q. CC50 at 48 h for CCC(=O)Nc1cc(C(=O)Nc2ccccc2)ccc1OC ?
A. > 670 µM

Q. Fill blank: measured CC50 at 48 h of the compound CCC(=O)Nc1cc(C(=O)Nc2nccs2)ccc1OC is ____.
A. > 655 µM

Q. Find the recorded CC50 at 48 h belonging to CCC(=O)Nc1cc(C(=O)Nc2cccc(SC)c2)ccc1OC and report it.
A. 324 µM

Q. Consider the compound shown here: CC(F)C(=O)Nc1cccc(C(=O)Nc2ccccc2)c1 (stereo not drawn) What is its recorded CC50 at 48 h?
A. 578 µM

Q. Would you kindly share the measured CC50 at 48 h for COc1ccc(NC(=O)C(C)F)cc1C(=O)Nc1ccccc1 (stereo not drawn) ?
A. 272 µM

Q. Would you kindly share the measured CC50 at 48 h for COc1ccc(C(=O)Nc2ccccc2)cc1NC(=O)C1CCCC1 ?
A. 459 µM

Q. Record request: CC50 at 48 h value, item CCOC(=O)C1=C[C@@H](OC(CC)CC)[C@H](NC(C)=O)[C@@H](N)C1
A. 3070 µM

Q. Given the entry CCC(=O)Nc1cc(C(=O)Oc2ccccc2)ccc1OC , report its measured CC50 at 48 h.
A. 464 µM

Q. Any idea what its CC50 at 48 h is? The compound is COc1ccc(C(=O)Nc2ccccc2)cc1NC(C)=O
A. > 704 µM

Q. Param item = COc1ccc(C(=O)N(C)c2ccccc2)cc1NC(=O)C(C)C ; retrieve measured CC50 at 48 h.
A. 492 µM

Q. Return reported CC50 at 48 h; argument: CCC(=O)Nc1cc(C(=O)NC2CCC2)ccc1OC
A. > 724 µM

Q. Entry COc1ccc(C(=O)Nc2ccccc2)cc1 has what CC50 at 48 h?
A. > 880 µM

Q. Value lookup for CC50 at 48 h; key = CCC(=O)Nc1cc(C(=O)Nc2cccc(Cl)c2)ccc1OC
A. 602 µM

Q. Which CC50 at 48 h is reported for this compound? CCC(=O)Nc1cc(C(=O)NC2CCCCC2)ccc1OC
A. 510 µM

Q. Give the measured CC50 at 48 h of CCC(=O)Nc1cc(C(=O)N(C)c2ccccc2)ccc1OC .
A. 444 µM

----------
# System: Influenza B virus
# Method notes: Antiviral activity against Influenza B virus (strain B/Jifang/13/97) infected in MDCK cells assessed as inhibition of virus-induced cytopathic effect
# Format: functional, organism-based
Endpoint label: IC50

| Compound | IC50 |
| --- | --- |
| COc1ccc(C(=O)Nc2ccccc2)cc1NC(=O)C(C)Cl (stereo unspecified) | > 22.3 µM |
| CCC(=O)Nc1cc(S(=O)(=O)Nc2ccccc2)ccc1OC | > 66.7 µM |
| CCC(=O)Nc1cc(C(=O)NC2CCC2)ccc1OC | > 241 µM |
| COc1ccc(C(=O)Nc2ccccc2)cc1NC(=O)C1CCCC1 | > 65.7 µM |
| CCC(=O)Nc1cc(C(=O)Nc2ccc(C)cc2)ccc1OC | > 23.7 µM |

# next compound below
Q. Record request: IC50 value, item CCC(=O)Nc1cc(C(=O)Nc2ccccc2)ccc1OC
A. > 224 µM
